Source listed as PubChem BioAssay AID2009.

tested_system: Cdc42 activated mutant (human), GST fusion
assay_name: constitutively active Cdc42 fluorescent GTP binding inhibition – biochemical, oxadiazole analogs, multiplex bead flow cytometry, Ki, SAR follow-up (AID 2009)
condition_set: Bead-based flow cytometry, Bodipy-FL-GTP binding; measured here: Ki calculated from EC50
metric: Ki (nM)

Below, each entry is followed by its recorded Ki result.
Cc1ccc(C)c(N2CCN(C(=O)CCc3nc(-c4ccccc4C(F)(F)F)no3)CC2)c1 | 260
COc1ccc(-c2noc(CCC(=O)N3CCN(c4ccc(OC)cc4)CC3)n2)cc1 | 110

P = COc1ccc(-c2noc(CCC(=O)N3CCN(c4ccccc4C)CC3)n2)cc1
Q = Cc1ccc(C)c(N2CCN(C(=O)CCc3nc(-c4ccc(Br)cc4)no3)CC2)c1
R = Cc1ccc(C)c(N2CCN(C(=O)CCc3nc(-c4ccccc4)no3)CC2)c1
Order the 3 molecules from highest to lowest Ki. Use the labels to give the requested order.
Q, P, R
